Taken from patent US20130261077A1.

Target: FimH-CRD (Escherichia coli, UniProt P08191)
Construct: The first 177 amino acids of the FimH protein; thrombin tag (printed as 'fusion protein with thrombin') (cleaved yes); made in house; host or cells: bacteria (pET21b plasmid)
Sequence (P08191 22-177): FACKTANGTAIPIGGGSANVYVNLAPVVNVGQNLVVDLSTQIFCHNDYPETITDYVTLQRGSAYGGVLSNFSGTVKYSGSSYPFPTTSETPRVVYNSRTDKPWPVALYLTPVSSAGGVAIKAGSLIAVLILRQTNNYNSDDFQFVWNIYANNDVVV
Experiment: Competitive binding assay by fluorescence polarization, assay 2 (compounds prepared by robotics, plates frozen and thawed)
pKd: −log10 of the molar value.
observation.type: pKd

# molecule, observed.measurement
measured = [
    ("OC[C@H]1OC(c2cccc(OCC3CCCCC3)c2)[C@@H](O)[C@@H](O)[C@@H]1O (stereo partly shown)", 7.88),
    ("OC[C@H]1O[C@H](c2cc(O)ccc2F)[C@@H](O)[C@@H](O)[C@@H]1O", 7.25),
    ("CNC(=O)c1cccc(Oc2cc([C@H]3O[C@H](CO)[C@@H](O)[C@H](O)[C@@H]3O)ccc2OC)c1", 7.95),
    ("OC[C@H]1OC(c2cccc(OCCC3CCCCC3)c2)[C@@H](O)[C@@H](O)[C@@H]1O (stereo partly shown)", 7.79),
]
